The measurements presented in this section are drawn from patent US20230265151A1.

- testedSystem: T1, human GIP receptor (human, UniProt P48546 22-466)
- T1 construct: whole, on cells; also called hGIPR; human glucose-dependent insulinotropic polypeptide receptor
- T1 sequence (looked up): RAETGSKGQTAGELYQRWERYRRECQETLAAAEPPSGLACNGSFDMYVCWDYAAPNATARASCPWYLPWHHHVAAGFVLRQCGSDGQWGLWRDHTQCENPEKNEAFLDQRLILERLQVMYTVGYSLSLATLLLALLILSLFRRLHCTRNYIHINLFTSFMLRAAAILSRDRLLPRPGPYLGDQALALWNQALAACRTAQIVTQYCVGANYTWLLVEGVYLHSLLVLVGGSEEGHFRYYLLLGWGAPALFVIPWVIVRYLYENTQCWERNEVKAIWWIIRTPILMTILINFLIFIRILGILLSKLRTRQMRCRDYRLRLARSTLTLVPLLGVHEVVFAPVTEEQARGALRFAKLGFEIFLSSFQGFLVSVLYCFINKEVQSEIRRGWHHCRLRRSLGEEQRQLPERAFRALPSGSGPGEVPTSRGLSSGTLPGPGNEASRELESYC
- measurementNotes: SPA competition vs [125I]-GIP, hGIPR membranes
resultType: Ki (pM)
Reply numerically in pM, unit not repeated.

Give recorded Ki. YXEGTXTSDXSIXLDXKAQXEXIXXLIEGGKSSGAPPPS (Aib2, αMeF(2F)6, 4Pal10, αMeL13, Orn16, K17(Z1), Aib20, 3FPhe22, D-Glu24, αMeY25, K31(Z1), C-term NH2; Z1=AEEA2-(γ-Glu)-CO-(CH2)12-CO2H)
161

Give recorded Ki. YXEGTXTSDXXIXLDXQAQXXFIKXLIKGGPSSGAPPPS (Aib2, αMeF(2F)6, 4Pal10, Aib11, αMeL13, Orn16, Aib20, Orn21, K24(Z1), αMeY25, K28(Z1), C-term NH2; Z1=PEG5-(γ-Glu)-CO-(CH2)12-CO2H)
48.6

Give recorded Ki. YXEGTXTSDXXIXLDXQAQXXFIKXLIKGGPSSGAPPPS (Aib2, αMeF(2F)6, 4Pal10, Aib11, αMeL13, Orn16, Aib20, Orn21, K24(Z1), αMeY25, K28(Z1), C-term NH2; Z1=PEG4-(γ-Glu)-CO-(CH2)12-CO2H)
41.9

Give recorded Ki. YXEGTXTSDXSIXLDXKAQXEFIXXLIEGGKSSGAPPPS (Aib2, αMeF(2F)6, 4Pal10, αMeL13, Orn16, K17(Z1), Aib20, D-Glu24, αMeY25, K31(Z1), C-term NH2; Z1=AEEA-(γ-Glu)-AEEA-CO-(CH2)12-CO2H)
92

Give recorded Ki. YXEGTXTSDXXIXLDXKAQXEFIXXLIEGGPSSGAPPPSK (Aib2, αMeF(2F)6, 4Pal10, Aib11, αMeL13, Orn16, K17(Z1), Aib20, D-Glu24, αMeY25, K40(Z1), C-term NH2; Z1=AEEA3-(γ-Glu)-CO-(CH2)10-CH3)
20.6

Give recorded Ki. YXEGTXTSDXXIXLDXQAQXEFIKXLIKGGPSSGAPPPS (Aib2, αMeF(2F)6, 4Pal10, Aib11, αMeL13, Orn16, Aib20, K24(Z1), αMeY25, K28(Z1), C-term NH2; Z1=AEEA2-(γ-Glu)-(10-(4-carboxyphenoxy)decanoyl))
37.5

Give recorded Ki. YXEGTXTSDYXIXLDXKAQXEFIXXLIEGGKSSGAPPPS (Aib2, αMeF(2F)6, Aib11, αMeL13, Orn16, K17(Z1), Aib20, D-Glu24, αMeY25, K31(Z1), C-term NH2; Z1=AEEA2-(γ-Glu)-CO-(CH2)12-CO2H)
29.6

Give recorded Ki. YXEGTXTSDXXGXLDXQAQXXFIKXLIKGGPSSGAPPPS (Aib2, αMeF(2F)6, 4Pal10, Aib11, αMeL13, Orn16, Aib20, Orn21, K24(Z1), αMeY25, K28(Z1), C-term NH2; Z1=AEEA2-(γ-Glu)-CO-(CH2)12-CO2H, G at position 12)
53.9

Give recorded Ki. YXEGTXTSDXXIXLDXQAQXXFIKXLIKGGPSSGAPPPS (Aib2, αMeF(2F)6, 4Pal10, Aib11, αMeL13, Orn16, Aib20, Orn21, K24(Z1), αMeY25, K28(Z1), C-term NH2; Z1=AEEA-(γ-Glu)-CO-(CH2)12-CO2H)
23

Give recorded Ki. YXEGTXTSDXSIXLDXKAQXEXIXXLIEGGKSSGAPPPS (Aib2, αMeF(2F)6, 4Pal10, αMeL13, Orn16, K17(Z1), Aib20, 1Nal22, D-Glu24, αMeY25, K31(Z1), C-term NH2; Z1=AEEA2-(γ-Glu)-CO-(CH2)12-CO2H)
263

Give recorded Ki. YXEGTXTSDXSIXLDXKAQXKFIXXLIEGGPSSGAPPPS (Aib2, αMeF(2F)6, 4Pal10, αMeL13, Orn16, K17(Z1), Aib20, K21(Z1), D-Glu24, αMeY25, C-term NH2; Z1=AEEA2-(γ-Glu)-CO-(CH2)10-CH3)
40.3

Give recorded Ki. YXEGTXTSDXXIXLDXKAQXXFIXXLIKGGPSSGAPPPS (Aib2, αMeF(2F)6, 4Pal10, Aib11, αMeL13, Orn16, K17(Z1), Aib20, Orn21, D-Glu24, αMeY25, K28(Z1), C-term NH2; Z1=AEEA3-(γ-Glu)-CO-(CH2)10-CH3)
9.65

Give recorded Ki. YXEGTXTSDXXIXLDXKAQXTFIXXLIKGGPSSGAPPPS (Aib2, αMeF(2F)6, 4Pal10, Aib11, αMeL13, Orn16, K17(Z1), Aib20, D-Glu24, αMeY25, K28(Z1), C-term NH2; Z1=AEEA2-(γ-Glu)-CO-(CH2)10-CH3, T at position 21)
16.6

Give recorded Ki. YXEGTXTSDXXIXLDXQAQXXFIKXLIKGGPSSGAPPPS (Aib2, αMeF(2F)6, 4Pal10, Aib11, αMeL13, Orn16, Aib20, Orn21, K24(Z1), αMeY25, K28(Z1), C-term NH2; Z1=Ahx-AEEA-(γ-Glu)-CO-(CH2)12-CO2 (so in the source))
23.9

Give recorded Ki. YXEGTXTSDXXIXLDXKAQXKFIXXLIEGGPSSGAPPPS (Aib2, αMeF(2F)6, 4Pal10, Aib11, αMeL13, Orn16, K17(Z1), Aib20, K21(Z1), D-Glu24, αMeY25, C-term NH2; Z1=AEEA-(γ-Glu)-CO-(CH2)12-CO2H)
78.2

Give recorded Ki. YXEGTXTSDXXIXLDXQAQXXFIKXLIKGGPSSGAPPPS (Aib2, αMeF(2F)6, 4Pal10, Aib11, αMeL13, Orn16, Aib20, Orn21, K24(Z1), αMeY25, K28(Z1), C-term NH2; Z1=(γ-Glu)-AEEA2-(γ-Glu)-(10-(4-carboxyphenoxy)decanoyl))
23.6

Give recorded Ki. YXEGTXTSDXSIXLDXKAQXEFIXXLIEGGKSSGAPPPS (Aib2, αMeF6, αMeF10, αMeL13, Orn16, K17(Z1), Aib20, D-Glu24, αMeY25, K31(Z1), C-term NH2; Z1=AEEA2-(γ-Glu)-CO-(CH2)12-CO2H)
89.1

Give recorded Ki. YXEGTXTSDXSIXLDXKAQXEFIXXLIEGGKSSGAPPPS (Aib2, αMeF(2F)6, OMeY10, αMeL13, Orn16, K17(Z1), Aib20, D-Glu24, αMeY25, K31(Z1), C-term NH2; Z1=AEEA2-(γ-Glu)-CO-(CH2)12-CO2H)
208

Give recorded Ki. YXEGTXTSDXSIXLDXKAQXEFIKXLIEGGPSSGAPPPS (Aib2, αMeF(2F)6, 4Pal10, αMeL13, Orn16, K17(Z1), Aib20, K24(Z1), αMeY25, C-term NH2; Z1=AEEA2-(γ-Glu)-CO-(CH2)14-CH3)
21.7

Give recorded Ki. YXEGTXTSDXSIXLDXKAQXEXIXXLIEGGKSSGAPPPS (Aib2, αMeF6, 4Pal10, αMeL13, Orn16, K17(Z1), Aib20, αMeF22, D-Glu24, αMeY25, K31(Z1), C-term NH2; Z1=AEEA2-(γ-Glu)-CO-(CH2)12-CO2H)
76.1

Give recorded Ki. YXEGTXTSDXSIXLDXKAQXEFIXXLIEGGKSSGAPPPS (Aib2, αMeF(2F)6, 4Pal10, αMeL13, Orn16, K17(Z1), Aib20, D-Glu24, αMeY25, K31(Z1), C-term NH2; Z1=AEEA2-(γ-Glu)-CO-(CH2)14-CH3)
50.1

Give recorded Ki. YXEGTXTSDXSIXLDXKAQXKFIXXLIXGGPSSGAPPPS (Aib2, αMeF(2F)6, 4Pal10, αMeL13, Orn16, K17(Z1), Aib20, K21(Z1), D-Glu24, αMeY25, Orn28, C-term NH2; Z1=AEEA2-(γ-Glu)-CO-(CH2)10-CH3)
13.1

Give recorded Ki. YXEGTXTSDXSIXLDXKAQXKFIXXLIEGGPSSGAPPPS (Aib2, αMeF(2F)6, 4Pal10, αMeL13, Orn16, K17(Z1), Aib20, K21(Z1), D-Glu24, αMeY25, C-term NH2; Z1=AEEA2-(γ-Glu)-CO-(CH2)14-CH3)
23.1

Give recorded Ki. YXEGTXTSDXXIXLDXKAQXEFIXXLIKGGPSSGAPPPS (Aib2, αMeF(2F)6, 4Pal10, Aib11, αMeL13, Orn16, K17(Z1), Aib20, D-Glu24, αMeY25, K28(Z1), C-term NH2; Z1=AEEA2-(γ-Glu)-CO-(CH2)10-CH3)
19.5

Give recorded Ki. YXEGTXTSDXSIXLDXKAQXEFIXXLIKGGPSSGAPPPS (Aib2, αMeF(2F)6, 4Pal10, αMeL13, Orn16, K17(Z1), Aib20, D-Glu24, αMeY25, K28(Z1), C-term NH2; Z1=AEEA2-(γ-Glu)-CO-(CH2)10-CH3)
41.5
